protocol-details: Cytotoxicity against MDBK cells after 48 to 96 hrs by MTT assay
Type: cell-based, Bos taurus
settings: cattle
outcome-measure: CC50

Lookup: // query CC50 value for entry Clc1c2ncccc2cc2nc(-c3ccccc3)[nH]c12
Found: 65 µM

Lookup: Query (compound): O=c1[nH]c2cc3cccnc3c(Cl)c2nc1Cc1ccccc1 ; field requested: CC50
Found: > 100 µM

Lookup: # CC50 lookup, item CCOC(=O)C(C)c1nc2cc3cccnc3c(Cl)c2[nH]c1=O (stereo not drawn)
Found: > 100 µM

Lookup: Would you kindly share the measured CC50 for O=c1[nH]c2cc3cccnc3c(Cl)c2nc1-c1ccccc1 ?
Found: > 100 µM

Lookup: Record request: CC50 value, item N#CCn1nnc2c(Cl)c3ncccc3cc21
Found: > 100 µM

Lookup: Which CC50 value is on record for Clc1ccc(-c2nc3cc4cccnc4cc3[nH]2)cc1 ?
Found: > 100 µM

Lookup: For the compound shown here, Clc1c2ncccc2cc2nc(-c3ccccc3)c(-c3ccccc3)nc12 , give the reported CC50.
Found: > 100 µM

Lookup: Could you tell me which CC50 is on file for Clc1c2ncccc2cc2nccnc12 ?
Found: 6.5 µM
